Entries and their nuclei count
EXPERIMENT_NOTES: endothelial E-selectin expression blockers – imaging, HUVEC, immunofluorescence, MLSMR starter and 10KST1 sets, primary screen (AID 487);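 note: 100% = median nuclei count of all wells on the same plate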
MEASUREMENT_PARAMETERS: HUVEC TNFalpha-induced E-selectin immunofluorescence imaging, at 2 µM; measured here: cell number, toxicity
The figure you give is taken to be in %; do not add the unit.

// recorded nuclei count for COc1ccccc1N1CCN(C(=O)CSc2nc3ncnc(N)c3[nH]2)CC1 : 162

Continuing:
// recorded nuclei count for CC(C)(C)NC(=O)CN(C(=O)C1CSC(=O)C1)c1ccc2c(c1)OCCO2 (centres undefined) : 108

// recorded nuclei count for CCCn1c2c(c(O)c(C(=O)Nc3ccc(C)cn3)c1=O)CCCC2 : 91.3

// recorded nuclei count for CCC(=O)N/C(N)=N/c1nc(C)c2cc(OC)ccc2n1 : 92.1

// recorded nuclei count for Cc1cnc(NC(=O)CSc2nc3ccccc3c(=O)[nH]2)s1 : 98.4

// recorded nuclei count for Cc1onc(-c2ccccc2)c1C(=O)N1CCCSC1=Nc1ccccc1 : 79.6

// recorded nuclei count for CC1CN(C2CCCCC2)c2nc3c(c(=O)[nH]c(=O)n3C)n2C1 (centres undefined) : 108

// recorded nuclei count for O=C(CCCSc1nc2ccccc2s1)NC1=NCCS1 : 102

// recorded nuclei count for CCN(CC)CCOC(=O)c1cccc(OC)c1 : 98.7

// recorded nuclei count for CCOC(=O)c1c(NC(=O)CSc2nc3c(c(=O)n(C)c(=O)n3C)n2C(C)C)sc(C)c1C : 82.3

// recorded nuclei count for O=C(c1ccc2ccccc2n1)N1CCN(c2ccccc2)CC1 : 142

The origin of these recorded values is PubChem BioAssay.
